MEASURED_ON: CCR3 (Homo sapiens, UniProt P51677)
Construct: purchased Promega (in-house HiBiT-GPCR construct library, NanoBRET)
Sequence (P51677 whole entry): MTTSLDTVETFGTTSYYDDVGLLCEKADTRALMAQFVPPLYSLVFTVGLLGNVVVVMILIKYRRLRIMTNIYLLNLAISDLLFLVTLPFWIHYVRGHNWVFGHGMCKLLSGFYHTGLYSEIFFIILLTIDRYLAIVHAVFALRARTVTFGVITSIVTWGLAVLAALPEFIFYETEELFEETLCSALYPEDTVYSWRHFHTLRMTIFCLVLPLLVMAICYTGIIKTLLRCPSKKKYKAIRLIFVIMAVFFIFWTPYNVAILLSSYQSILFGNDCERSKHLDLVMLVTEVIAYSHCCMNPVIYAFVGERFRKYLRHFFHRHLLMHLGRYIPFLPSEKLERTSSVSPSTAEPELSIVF
EXPERIMENTAL_DETAILS: NanoBRET screen HiBiT-CCR3 in HEK293
Format: binding
CONDITIONS: CCR3; tracer 1μM
Returns one of MET or NOT MET; MET when NanoBRET Fold Response is >= 0.9.

Input: In plain terms: is recorded NanoBRET Fold Response at least 0.9 for "O=C(CCOCCOCCOCCOCCNC(=O)CCc1ccc2n1[B-](F)(F)[N+]1=C(c3ccc[nH]3)C=CC1=C2)NCCCN1CCN(C2=Nc3ccccc3Oc3ccc(Cl)cc32)CC1" ?
Output: MET

Input: Same question, "CCCn1c(=O)c2[nH]c(-c3ccc(OCC(=O)NCCNC(=O)CCOCCNC(=O)c4ccc(CNC(=O)CCc5ccc6n5[B-](F)(F)[N+]5=C(c7ccc[nH]7)C=CC5=C6)cc4)cc3)nc2n(CCC)c1=O" this time
Output: NOT MET

Input: Same question, "CC(C)N(CC[C@H](c1ccccc1)c1cc(CCNC(=O)CCOCCOCCOCCOCCNC(=O)CCc2ccc3n2[B-](F)(F)[N+]2=C(c4ccc[nH]4)C=CC2=C3)ccc1O)C(C)C" this time
Output: MET

Input: Same question, "CC(C)N(CC[C@H](c1ccccc1)c1cc(CCNC(=O)c2ccc(CNC(=O)CCc3ccc4n3[B-](F)(F)[N+]3=C(c5ccc[nH]5)C=CC3=C4)cc2)ccc1O)C(C)C" this time
Output: NOT MET

Input: Same question, "COc1ccccc1N1CCN(CCCCN2C(=O)c3ccc(CNC(=O)CCOCCNC(=O)c4ccc(CNC(=O)CCc5ccc6n5[B-](F)(F)[N+]5=C(c7ccc[nH]7)C=CC5=C6)cc4)cc3C2=O)CC1" this time
Output: MET

Input: Same question, "COc1ccccc1N1CCN(CCCCN2C(=O)c3ccc(CNC(=O)CCOCCOCCOCCOCCNC(=O)CCc4ccc5n4[B-](F)(F)[N+]4=C(c6ccc[nH]6)C=CC4=C5)cc3C2=O)CC1" this time
Output: MET

Input: Same question, Cc1nc2n(c(=O)c1CCN1CCC(c3noc4cc(F)ccc34)CC1)CCCC2OC(=O)NCCOCCOCCOCCOCCNC(=O)CCc1ccc2n1[B-](F)(F)[N+]1=C(c3ccc[nH]3)C=CC1=C2 (centres unmarked) this time
Output: MET

* * *

MEASURED_ON: CXCR6 (Homo sapiens)
Construct: purchased Promega (in-house HiBiT-GPCR construct library, NanoBRET)
Sequence (O00574 whole entry): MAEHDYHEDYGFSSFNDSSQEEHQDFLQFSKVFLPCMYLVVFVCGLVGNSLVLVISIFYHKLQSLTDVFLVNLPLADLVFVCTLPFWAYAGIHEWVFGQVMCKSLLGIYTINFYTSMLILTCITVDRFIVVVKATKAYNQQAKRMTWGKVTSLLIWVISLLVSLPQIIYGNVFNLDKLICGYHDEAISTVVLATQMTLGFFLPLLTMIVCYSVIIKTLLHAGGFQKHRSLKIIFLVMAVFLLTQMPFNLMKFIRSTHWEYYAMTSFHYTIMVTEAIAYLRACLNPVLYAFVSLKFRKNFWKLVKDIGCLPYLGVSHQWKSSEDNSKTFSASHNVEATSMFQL
EXPERIMENTAL_DETAILS: NanoBRET screen HiBiT-CXCR6 in HEK293
Format: binding
CONDITIONS: CXCR6; tracer 1μM
Returns one of 1 or 0; 1 when NanoBRET Fold Response is >= 1.

Input: In plain terms: is recorded NanoBRET Fold Response at least 1 for "CC(C)N(CC[C@H](c1ccccc1)c1cc(CCNC(=O)CCOCCOCCOCCOCCNC(=O)CCc2ccc3n2[B-](F)(F)[N+]2=C(c4ccc[nH]4)C=CC2=C3)ccc1O)C(C)C" ?
Output: 0

Input: Same question, O=C(CCc1ccc2n1[B-](F)(F)[N+]1=C(c3ccc[nH]3)C=CC1=C2)NCc1ccc(C(=O)NCCOCCC(=O)N[C@@H]2CC[C@@]3(O)[C@H]4Cc5ccc(O)c6c5[C@@]3(CCN4CC3CC3)[C@H]2O6)cc1 [Naltrexone-3-NB590] this time
Output: 0

Input: Same question, "O=C(CCc1ccc2n1[B-](F)(F)[N+]1=C(c3ccc[nH]3)C=CC1=C2)NCCOCCOCCNC(=O)OCCOCCN1CCN(C2=Nc3ccccc3Sc3ccccc32)CC1" this time
Output: 1

Input: Same question, Cc1nc2n(c(=O)c1CCN1CCC(c3noc4cc(F)ccc34)CC1)CCCC2OC(=O)NCCOCCOCCOCCOCCNC(=O)CCc1ccc2n1[B-](F)(F)[N+]1=C(c3ccc[nH]3)C=CC1=C2 (centres unmarked) this time
Output: 1

Input: Same question, "CCCn1c(=O)c2[nH]c(-c3ccc(OCC(=O)NCCNC(=O)CCOCCNC(=O)c4ccc(CNC(=O)CCc5ccc6n5[B-](F)(F)[N+]5=C(c7ccc[nH]7)C=CC5=C6)cc4)cc3)nc2n(CCC)c1=O" this time
Output: 1

Input: Same question, "COc1ccccc1N1CCN(CCCCN2C(=O)c3ccc(CNC(=O)CCOCCNC(=O)c4ccc(CNC(=O)CCc5ccc6n5[B-](F)(F)[N+]5=C(c7ccc[nH]7)C=CC5=C6)cc4)cc3C2=O)CC1" this time
Output: 0

Input: Same question, "N#CN=C(NCCCOc1cccc(CN2CCCCC2)c1)NCCNC(=O)CCOCCOCCOCCOCCNC(=O)CCc1ccc2n1[B-](F)(F)[N+]1=C(c3ccc[nH]3)C=CC1=C2" this time
Output: 1
